Data credit: patent US20220087990A1

- Test system: methicillin-resistant Staphylococcus aureus (MRSA) isolates
- assay.info: MIC measured by agar dilution method (CLSI)
- Format: cell-based
- particulars: Staphylococcus aureus, MRSA, strain 6315; LEV^R RIF^S; agar dilution
Entries annotated with measured MIC
Entry rule: numbers only, all in µg/mL.

1) CO[C@H]1/C=C/O[C@@]2(C)Oc3c(C)c(O)c4c(O)c(c(/C=N/N5CCN(C)CC5)c(O)c4c3C2=O)NC(=O)/C(C)=C\C=C\[C@H](C)[C@H](O)[C@@H](C)[C@@H](O)[C@@H](C)[C@H](OC(C)=O)[C@@H]1C [Rifampicin]
0.015

Kindly review the next molecule as well.
Which MIC value belongs to CO[C@H]1/C=C/O[C@@]2(C)Oc3c(C)c(O)c4c(O)c(c(/C=N/N5CCC(N(C)C6([C@@H]7CCN(c8c(F)cn9c(=O)c(C(=O)O)cc(C%10CC%10)c9c8C)C7)CC6)CC5)c(O)c4c3C2=O)NC(=O)/C(C)=C\C=C\[C@H](C)[C@H](O)[C@@H](C)[C@@H](O)[C@@H](C)[C@H](OC(C)=O)[C@@H]1C [I] ?
0.015

====

Listed here: items and their measured MIC.
- Test system: methicillin-resistant Staphylococcus aureus (MRSA) isolates
- assay.info: MIC measured by agar dilution method (CLSI)
- Assay type: cell-based
- particulars: Staphylococcus aureus, MRSA, strain 3098; LEV^S RIF^S; agar dilution
Use µg/mL as the unit, but write only the number.

Observe how each entry below is paired with its result.
1. CO[C@H]1/C=C/O[C@@]2(C)Oc3c(C)c(O)c4c(O)c(c(/C=N/N5CCC(N(C)C6([C@@H]7CCN(c8c(F)cn9c(=O)c(C(=O)O)cc(C%10CC%10)c9c8C)C7)CC6)CC5)c(O)c4c3C2=O)NC(=O)/C(C)=C\C=C\[C@H](C)[C@H](O)[C@@H](C)[C@@H](O)[C@@H](C)[C@H](OC(C)=O)[C@@H]1C
0.015
2. CO[C@H]1/C=C/O[C@@]2(C)Oc3c(C)c(O)c4c(O)c(c(/C=N/N5CCN(C)CC5)c(O)c4c3C2=O)NC(=O)/C(C)=C\C=C\[C@H](C)[C@H](O)[C@@H](C)[C@@H](O)[C@@H](C)[C@H](OC(C)=O)[C@@H]1C
0.015

Any idea what MIC was measured for C[C@H]1COc2c(N3CCN(C)CC3)c(F)cc3c(=O)c(C(=O)O)cn1c23 ?
0.25

====

- System: methicillin-resistant Staphylococcus aureus (MRSA) isolates
- assay.info: MIC measured by agar dilution method (CLSI)
- Assay type: cell-based
- particulars: Staphylococcus aureus, MRSA, strain 7775; LEV^R; agar dilution
Let's look at some compounds and their measured MIC.

1. CO[C@H]1/C=C/O[C@@]2(C)Oc3c(C)c(O)c4c(O)c(c(/C=N/N5CCC(N(C)C6([C@@H]7CCN(c8c(F)cn9c(=O)c(C(=O)O)cc(C%10CC%10)c9c8C)C7)CC6)CC5)c(O)c4c3C2=O)NC(=O)/C(C)=C\C=C\[C@H](C)[C@H](O)[C@@H](C)[C@@H](O)[C@@H](C)[C@H](OC(C)=O)[C@@H]1C
0.015 µg/mL
2. C[C@H]1COc2c(N3CCN(C)CC3)c(F)cc3c(=O)c(C(=O)O)cn1c23
16 µg/mL
3. Cc1onc(-c2ccccc2)c1C(=O)N[C@@H]1C(=O)N2[C@@H]1SC(C)(C)[C@@H]2C(=O)O
> 8 µg/mL

Consider now this further compound.
# MIC lookup, item CO[C@H]1/C=C/O[C@@]2(C)Oc3c(C)c(O)c4c(O)c(c(/C=N/N5CCN(C)CC5)c(O)c4c3C2=O)NC(=O)/C(C)=C\C=C\[C@H](C)[C@H](O)[C@@H](C)[C@@H](O)[C@@H](C)[C@H](OC(C)=O)[C@@H]1C
0.015 µg/mL
